Record form. Attribute: logD. Fill in for each entry.
assay: physchem; conditions: octan-1-ol/water, pH 7.4, LogD7.4

{"compound": "Oc1c2ncc3ccccc3c2nn1-c1ccc(Cl)cc1", "result": 1.52}

Batch: logD for all items listed.
1. Cc1cn([C@H]2CCCN(Cc3ccc(C(=O)O)c(Oc4cccc(C(F)(F)F)c4)c3)C2)c(=O)[nH]c1=O
2. O=C(NCC12CC3CC(CC(C3)C1)C2)c1cc(OC2CCNCC2)ccc1Cl
3. O=C(O)COc1cccc(C(=O)N2CCC(N3CCC(Oc4ccc(Cl)c(Cl)c4)CC3)CC2)c1

## Result
1: -0.38; 2: 1.83; 3: 1.09

Batch: logD for all items listed.
1. CN(C)CCC=C1c2ccccc2COc2ccccc21 [DOXEPIN]
2. COc1ccc(Cn2c(=O)[nH]c3c(=O)n(CC(=O)NC(C(=O)C(F)(F)F)C(C)C)c(-c4ccccc4)cc3c2=O)cc1 (centres undefined)
3. Nc1nc2nc(SCc3cccc(F)c3F)[nH]c(=O)c2s1
4. Cc1ccc(S(=O)(=O)Nc2c(C(=O)N[C@@H](C)C(C)(C)C)c(C)nn2C2CCS(=O)(=O)CC2)cc1
5. C[C@H](Nc1ccc2ncn(-c3cc(C4CC4)[nH]n3)c2n1)c1ncc(F)cn1

## Result
1. 2.15
2. 2.93
3. 2.5
4. 0.25
5. 2.74

###

assay: in vitro; conditions: human, liver microsomes
Decide by microsomal CLint: equal to or exceeding 20 µL/min/mg means 1, less means -1.

Example cases with answers are listed next.
{"molecule": "CCS(=O)(=O)c1ccc(-c2cc(C(F)(F)F)ccc2CCC(=O)O)c(C)c1", "label_class": -1}
{"molecule": "COc1cccc(C(=O)NCCN2CCC(Oc3ccc(Cl)c(Cl)c3)CC2)c1", "label_class": -1}
{"molecule": "Cc1nccn1CCC(C(N)=O)(c1ccccc1)c1ccccc1", "label_class": -1}
{"molecule": "COc1ccc(CC(=O)N(C)C2CCN(CCC(c3ccccc3)c3ccccc3)CC2)cc1OC", "label_class": 1}
{"molecule": "CCCCCCc1nc2c(N)nc3ccccc3c2n1Cc1ccccc1", "label_class": -1}

## Task Hi, just wondering whether `C[C@@H](O)[C@H]1C(=O)N2C(C(=O)O)=C(SC3CN(C4=NCCS4)C3)[C@H](C)[C@H]12` shows microsomal CLint of 20 µL/min/mg or higher.
## Result 1

## Task Hi, just wondering whether `COc1cccc(C(=O)Nc2ccc(C)c(-n3cnc4ccc(N5CCN(C)CC5)cc4c3=O)c2)c1` shows microsomal CLint of 20 µL/min/mg or higher.
## Result -1

###

assay: physchem; conditions: octan-1-ol/water, pH 7.4, LogD7.4
Record form. Attribute: logD. Fill in for each entry.
Numbers only.

Batch: logD for all items listed.
1. CNC(=O)c1cc(-c2nc(N3CCOCC3)cc(C3(S(C)(=O)=O)CC3)n2)c2cc[nH]c2c1
2. COc1ccc(S(=O)(=O)NCC(c2ccccc2)N2CCCCCC2)cc1 (stereo not given)
3. COc1cc(OC)cc(-c2ccc(NC(=O)OCc3ccccc3)c(=O)n2CC(=O)NC(C(=O)C(F)(F)F)C(C)C)c1 (stereo not given)
4. COc1cccc2c1c(NS(=O)(=O)c1ccc(Cl)s1)nn2Cc1cccc(CNC(=O)C(C)(C)O)c1
5. Cc1ccc(NC(=O)c2ccccc2F)cc1-n1cnc2ccc(N3CCN(C)CC3)cc2c1=O
6. C[C@@H](NC(=O)C1(N)CCN(c2ncnc3[nH]ccc23)CC1)c1ccc(Cl)cc1
7. Cc1sc(N)nc1-c1ccccc1
8. Oc1cc(OCc2ccccc2)ccn1

## Result
1. 1.7
2. 3.13
3. 2.26
4. 2.09
5. 2.75
6. 3.3
7. 2.75
8. 1.69

Batch: logD for all items listed.
1. COc1cc(N2CCN(C(N)=O)CC2)ccc1Nc1ncc(Cl)c(-c2cnc3ccccn23)n1
2. CNCCC=C1c2ccccc2CCc2ccccc21 [NORTRIPTYLINE]
3. O=C(Cc1ccc2c(n1)NCCC2)Nc1ccc(C[C@H](NC(=O)c2c(Cl)cccc2Cl)C(=O)O)cc1
4. Cc1nc2ccc(Cl)cn2c1-c1ccnc(N)n1
5. Cc1ncc(-c2nc(Nc3ccc(C(=O)N(C)C)cc3)ncc2F)n1C(C)C

## Result
1: 3.3; 2: 1.58; 3: -0.63; 4: 2.49; 5: 2.77

###

test: physchem; settings: pH 7.4 buffer
assay_endpoint: solubility thermodynamic

{"molecular_string": "CN(C(=O)Cc1ccc(-n2cnnn2)cc1)C1CCN(Cc2ccc(C(F)(F)F)nc2)CC1", "solubility thermodynamic": "182 µM"}

Batch: solubility thermodynamic for all items listed.
1. CN(C)C(=O)COc1cccc2ncnc(Nc3ccc4c(cnn4Cc4ccccn4)c3)c12
2. COCCCc1cc(Nc2nc(NCc3cc(C)no3)ncc2Br)[nH]n1
3. COc1ccc(Cl)c(Nc2ncnc3cc(OCCN4CCOCC4)cc(OC(C)C)c23)n1
4. CCNC(=O)c1cnc(N2CCN(C3CCN(Cc4ccc(Cl)cc4F)CC3)[C@@H](CC)C2)c(Cl)c1
5. O=c1cc(-c2ccccc2)[nH]c2c(Cl)cccc12
6. CN1CCC(n2cc(-c3cnc(N)c(-c4nc5ccc(F)cc5o4)c3)cn2)CC1
7. C[C@H](CO)Nc1nc(SCc2cccc(F)c2F)nc2nc(NS(C)(=O)=O)sc12
8. COc1cc2ncnc(Nc3cc(O)c(C)cc3F)c2cc1OC

## Result
10.7 µM
120 µM
26.9 µM
91.2 µM
30.9 µM
13.5 µM
832 µM
2.2 µM

## Task Requested field: solubility thermodynamic. Item: `O=C(Nc1ccc(N2CCOCC2)cc1)c1nnc(NC(=O)C2(c3ccc(Cl)cc3)CCC2)o1`
## Result 66.1 µM

###

test: in vitro; conditions: hepatocytes
assay_endpoint: hepatocyte CLint (µL/min/1e6 cells)
Give bare numbers, in µL/min/1e6 cells.

Worked cases, answers included:
{"compound": "O=c1[nH]c2c(O)ccc([C@@H](O)CNCCc3ccc(CNCCc4ccccc4F)cc3)c2s1", "units": "µL/min/1e6 cells", "hepatocyte CLint": 14}
{"compound": "Cc1ccc(S(=O)(=O)Nc2c(C(=O)N[C@H](C)C(C)(C)C)c(C)nn2-c2ccccc2)cc1", "units": "µL/min/1e6 cells", "hepatocyte CLint": 8}

Batch: hepatocyte CLint for all items listed.
1. Cc1ccc(S(=O)(=O)Nc2c(C(=O)NC3CCCCC3)c(C)nn2-c2ccccc2)cc1
2. CNCC[C@@H](Oc1cc(OC)ccc1C#N)c1ccccc1
3. C[C@@H](C(N)=O)c1ccc(OS(=O)(=O)C(F)(F)F)cc1
4. Cc1ccc(S(=O)(=O)Nc2c(C(=O)N[C@@H](C)C(C)(C)C)c(C)nn2C2CCSCC2)cc1
5. NC(=O)N1c2ccccc2C=Cc2ccccc21 [CARBAMAZEPINE]
6. Cc1ccc(C(=O)NC2CC2)cc1-c1ccc(C(=O)NCC2CC2)nc1

## Result
12
142
3
5
19.9
21

Batch: hepatocyte CLint for all items listed.
1. CN1CCN(c2nc3ccccc3cc2Cn2nc(-c3ccc4nc(N)sc4c3)c3c(N)ncnc32)CC1
2. O=C(NCC12CC3CC(CC(C3)C1)C2)c1cc(CN2CC3CNCC(C2)O3)ccc1Cl
3. Cc1cccc2c(O)nc(-c3ccc(C(F)(F)F)cc3)nc12
4. N#Cc1cccc(NCC(=O)Nc2c(Cl)ccc3nc(N4CC[C@@H](O)C4)ccc23)c1
5. COc1ccc(N(C(=O)Oc2c(C)cccc2C)c2ccnc(Nc3ccc(N4CCN(C)CC4)cc3)n2)c(OC)c1

## Result
1. 81
2. 9
3. 45.7
4. 8
5. 35.5

Batch: hepatocyte CLint for all items listed.
1. CC[C@@]1(O)C(=O)OCc2c1cc1n(c2=O)Cc2cc3c(CN(C)C)c(O)ccc3nc2-1 [TOPOTECAN]
2. Cc1cc(C)nc(SCC(=O)Nc2cc(C)on2)n1
3. NC1(c2ccc(-c3nc4ccccc4cc3-c3ccccc3)cc2)CCC1
4. COc1ccc2nc(C)cc(N3CC(CNC(=O)C4CC4)OC3=O)c2c1 (centres undefined)

## Result
1: 3.24; 2: 141; 3: 148; 4: 19.5

###

assay: physchem; conditions: pH 7.4 buffer
assay_endpoint: solubility thermodynamic (µM)
Answers are plain numbers, in µM.

Worked cases, answers included:
{"molecular_string": "NS(=O)(=O)c1ccc(Nc2nccc(-c3cnc4ccccn34)n2)cc1", "units": "µM", "numeric_readout": 6.5}
{"molecular_string": "Nc1nc2cc(Cl)ccc2n1CCCO", "units": "µM", "numeric_readout": 1320}
{"molecular_string": "C#CCN(Cc1ccc2nc(CO)[nH]c(=O)c2c1)c1ccc(C(=O)NCc2cccc([N+](=O)[O-])c2)cc1", "units": "µM", "numeric_readout": 0.4}
{"molecular_string": "Nc1cc(-c2ccccc2)ncn1", "units": "µM", "numeric_readout": 372}
{"molecular_string": "Nc1ncnc2c1ncn2Cc1ccccc1", "units": "µM", "numeric_readout": 246}

Batch: solubility thermodynamic for all items listed.
1. CCCSc1nc(NC)ccc1C(=O)N[C@H]1C2CC3CC1C[C@](O)(C3)C2
2. C[C@H](Oc1cccc2ncnc(Nc3ccc4c(cnn4Cc4cscn4)c3)c12)C(=O)N(C)C
3. CCOC(=O)c1cc2ccccc2[nH]1
4. O=C(Cc1ccccc1)Nc1ccccc1O
5. Cc1ccc(NC(=O)c2ccnc(N3CCOCC3)c2)cc1Nc1ccnc(OCC(C)(C)CN(C)C)n1

## Result
[46.8, 42.7, 89.1, 246, 490]

Batch: solubility thermodynamic for all items listed.
1. O=C(Nc1ccc(N2CCOCC2)nc1)c1nnc(Nc2ccc(Cl)cc2)o1
2. CN(C)c1cccc2c(S(N)(=O)=O)cccc12
3. Nc1nccc(/C=C/c2ccccc2)n1
4. CCOC(=O)c1ccc(COCC2CCN(c3ccc(C)nn3)CC2)cc1
5. O=C(N[C@@H](Cc1ccc(OCCc2ccc3c(n2)NCCC3)cc1)C(=O)O)c1c(Cl)cccc1Cl
6. COc1cc(Nc2cc(Oc3ccc(C)nc3C)ccn2)cc(OC)c1OC

## Result
1. 1
2. 23.4
3. 190
4. 468
5. 107
6. 6.8

Batch: solubility thermodynamic for all items listed.
1. CCc1cc(OCc2ccc(-c3ccccc3-c3nnn[nH]3)cc2)c2c(n1)CCCC2
2. C[C@@H](Oc1cccc2ncnc(Nc3ccc4c(cnn4Cc4cscn4)c3)c12)C(N)=O
3. c1ccc(-c2c[nH]c(-c3ccccc3)n2)cc1

## Result
1: 23.4; 2: 8.7; 3: 151

Batch: solubility thermodynamic for all items listed.
1. O=C(Nc1ccccc1)c1ccc2cccc(O)c2n1
2. COc1cc2c(Nc3cc(CC(=O)Nc4cccc(F)c4F)[nH]n3)ncnc2cc1OCCCN1CCC[C@@H]1CO
3. O=C(O)Cc1cccc(-c2ccc(NC(=O)c3nnc(Nc4ccccc4F)o3)cc2)c1

## Result
1. 6.6
2. 813
3. 257
